Origin of the recorded values: patent US20240148821A1

Overview of reported pIC50 across a group of molecules:
Target: protein-protein interaction between Kras and SOS1 (biotin-tagged human Kras loaded with GDP, His-tagged human SOS1) (Homo sapiens (Human), UniProt P01116, G12D)
Experiment: Protein-protein interaction inhibition between Kras and SOS1 (KrasG12D-SOS PPI) using AlphaScreen
Assay type: biochemical
Details: AlphaScreen; biotin-tagged human Kras loaded with GDP, His-tagged human SOS1; read-out: KRAS G12D-SOS PPI IC50
Bridge positions count the residues as written; N and C are the ends. Square brackets hold non-standard residues; d marks the D form. Peptide text beside a SMILES is read from it. * marks the point of attachment. hPhe(3-F,4-CF3) = N[C@@H](CCc1ccc(C(F)(F)F)c(F)c1)C(=O)O; NMeGly(cPent) = CN[C@H](C(=O)O)C1CCCC1; NMeCha = CN[C@@H](CC1CCCCC1)C(=O)O; NMeI = CC[C@H](C)[C@H](NC)C(=O)O; NMeD = CN[C@@H](CC(=O)O)C(=O)O; NMeL = CN[C@@H](CC(C)C)C(=O)O; NMeA = CN[C@@H](C)C(=O)O; Piperidide = C1CCN(*)CC1; Ac5c = NC1(C(=O)O)CCCC1; Aze = O=C(O)[C@@H]1CCN1; Sar = CNCC(=O)O
# reply with the number alone; pIC50 is -log10 of concentration in mol/L

>  <molecule>
CC[C@H](C)[C@@H]1NC(=O)[C@H](CC(C)C)N(C)C(=O)C[C@@H](C(=O)N2CCCCC2)N(C)C(=O)[C@H]([C@@H](C)CC)N(C)C(=O)C2(CCCC2)NC(=O)[C@@H]2CCCN2C(=O)[C@H](CCc2ccc(C(F)(F)F)c(F)c2)NC(=O)CN(C)C(=O)[C@H](C2CCCC2)N(C)C(=O)[C@@H]2CCN2C(=O)[C@H](C)N(C)C1=O [Compound 674] ([NMeL]I[NMeA][Aze][NMeGly(cPent)][Sar][hPhe(3-F,4-CF3)]P[Ac5c][NMeI][NMeD]-Piperidide; lactam N-11)

>  <meas-value>
8.25

$$$$

## Task Give the measured pIC50 of CC[C@H](C)[C@@H]1NC(=O)[C@H](CC(C)C)N(C)C(=O)C[C@@H](C(=O)N2CCCCC2)N(C)C(=O)[C@H](C2CCCC2)N(C)C(=O)C2(CCCC2)NC(=O)[C@@H]2CCCN2C(=O)[C@H](CCc2ccc(C(F)(F)F)c(F)c2)NC(=O)CN(C)C(=O)[C@H](CC2CCCCC2)N(C)C(=O)[C@@H]2CCN2C(=O)[C@H](C)N(C)C1=O [Compound 563] ([NMeL]I[NMeA][Aze][NMeCha][Sar][hPhe(3-F,4-CF3)]P[Ac5c][NMeGly(cPent)][NMeD]-Piperidide; lactam N-11) .
## Result 8.96

---

Target: protein-protein interaction between Kras and SOS1 (biotin-tagged human Kras loaded with GDP, His-tagged human SOS1) (Homo sapiens (Human), UniProt P01116, G12D)
Experiment: Protein-protein interaction inhibition between Kras and SOS1 (KrasG12D-SOS PPI) using AlphaScreen;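 also: kras produced in E. coli, Ni-coupled donor beads and streptavidin acceptor beads, excitation 680 nm with emission detected at 520–620 nm via singlet oxygen transfer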
Assay type: biochemical
Details: AlphaScreen; biotin-tagged human Kras loaded with GDP, His-tagged human SOS1; read-out: KRAS G12D-SOS PPI IC50
Numbered stars: 1 amine (or outer) side, 2 acyl side, 3 side chain; on linkers, the order of the positions; unused ones are H or OH. Bridge positions count the residues as written; N and C are the ends. Square brackets hold non-standard residues; d marks the D form. Peptide text beside a SMILES is read from it. * marks the point of attachment. hPhe(3-Cl-4-CF3) = N[C@@H](CCc1ccc(C(F)(F)F)c(Cl)c1)C(=O)O; NMePhe(4-CF3) = CN[C@@H](Cc1ccc(C(F)(F)F)cc1)C(=O)O; NMedβ3hAla = C[C@H](CC(=O)[*:2])N(C)[*:1]; NMeGly(cPent) = CN[C@H](C(=O)O)C1CCCC1; NMeCha = CN[C@@H](CC1CCCCC1)C(=O)O; NMeD = CN[C@@H](CC(=O)O)C(=O)O; NMeL = CN[C@@H](CC(C)C)C(=O)O; NMeA = CN[C@@H](C)C(=O)O; Pyrrolidide = C1CCN(*)C1; Ac5c = NC1(C(=O)O)CCCC1; Aze = O=C(O)[C@@H]1CCN1; Sar = CNCC(=O)O
pIC50 by entry:
Lab note — pIC50 values are minus log10 of concentrations in M.

>  <compound>
CC[C@H](C)[C@@H]1NC(=O)[C@H](CC(C)C)N(C)C(=O)C[C@@H](C(=O)N2CCCC2)N(C)C(=O)[C@H](C2CCCC2)N(C)C(=O)C2(CCCC2)NC(=O)[C@@H]2CCCN2C(=O)[C@H](CCc2ccc(C(F)(F)F)c(Cl)c2)NC(=O)CN(C)C(=O)[C@H](CC2CCCCC2)N(C)C(=O)[C@@H]2CCN2C(=O)[C@H](C)N(C)C1=O [Compound 1679] ([NMeL]I[NMeA][Aze][NMeCha][Sar][hPhe(3-Cl-4-CF3)]P[Ac5c][NMeGly(cPent)][NMeD]-Pyrrolidide; lactam N-11)

>  <metric>
pIC50

>  <meas-value>
9.07

$$$$

## Task Name the recorded pIC50 for CC[C@H](C)[C@@H]1NC(=O)[C@H](CC(C)C)N(C)C(=O)C[C@@H](C)N(C)C(=O)[C@H](C2CCCC2)N(C)C(=O)C2(CCCC2)NC(=O)[C@@H]2CCCN2C(=O)[C@H](CCc2ccc(C(F)(F)F)c(Cl)c2)NC(=O)CN(C)C(=O)[C@H](Cc2ccc(C(F)(F)F)cc2)N(C)C(=O)[C@@H]2CCN2C(=O)[C@H](C)N(C)C1=O [Compound 587] (cyclo([Ac5c][NMeGly(cPent)][NMedβ3hAla][NMeL]I[NMeA][Aze][NMePhe(4-CF3)][Sar][hPhe(3-Cl-4-CF3)]P)) .
## Result 8.92
